B1: glmS ribozyme (parent)
chain: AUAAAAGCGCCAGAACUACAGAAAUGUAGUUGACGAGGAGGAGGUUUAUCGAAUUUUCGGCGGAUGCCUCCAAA

- Variants of: B1
- Assay Comment: self-cleavage kobs at 2500 uM GlcN6P; higher = faster cleavage; RNA array
- Test Context: with glucosamine-6-phosphate
This sample holds only a part of the variants without activity.
Measured Endpoint: self-cleavage kobs at 2500 uM GlcN6P (s⁻¹)
One number for each entry, in s⁻¹.

Reference set (3 entries):
Mutant Id | Measured Endpoint | Measured Number
C16G U30A U55G | self-cleavage kobs at 2500 uM GlcN6P | 8.11e-05
U56A C58A | self-cleavage kobs at 2500 uM GlcN6P | 0.000187
U30G U56C | self-cleavage kobs at 2500 uM GlcN6P | 0.000454

Dear colleague, could you please provide self-cleavage kobs at 2500 uM GlcN6P for the variants listed below?
1. C50U C58A C70G
2. A12G U47A C70U
3. A64G G66U
4. A39U C71U
5. C34U C50G

output:
1. 7.55e-05
2. 0.000394
3. 0.00102
4. 0.0105
5. 5.23e-05

Dear colleague, could you please provide self-cleavage kobs at 2500 uM GlcN6P for the variants listed below?
1. C67G C68A
2. U45A U54A
3. U30G G37A A42U

output:
2.05e-05
0.122
6.68e-05
